- System: RARb:RXRa (NR concentration 270 nM, RXRa partner concentration 90 nM)
- experimental protocol: PBM binding z-score (relative to random genomic background probes); higher = stronger binding; sequences stand for … in GC…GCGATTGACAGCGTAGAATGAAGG
The class of a record is decided solely by its measured PBM binding z-score; consult low interval: < 3; middle interval: ≥ 3 and < 4; high interval: ≥ 4

* CCTTACGGGTCGCTGACAGGTTATAGCATTTGGA | low interval
* AGTAAAAGTTCACTAGGTAACGTAAGATTCAGCT | high interval
* CAAACTAGGTCACGAAAGGTCAAAGTTGAATGAC | high interval
* AGTCAAAGTTCAGGACGAGGTACCGTAAAGCACG | high interval
* CCGAGTAGGTTACGATGGGGCATTCAGTGCGAAT | low interval
* CGGACTAGGTCAAAGGACAGTGAAAGGCGACGTA | middle interval
* CCATGTAGGTTAAGGGGGTCATTCAGTTTGAAAG | middle interval
* TTGAGTAGGTTACGGGGGCATTCAGGGATGAAGA | low interval

In: For "TCGAGTAGGATACGGGGGCATTCAGGGATGAAGA" , which PBM binding z-score bin applies?
Out: low interval

In: For "TAGCCTAGGTCATTGGACCAGTATAGTACGCATC" , which PBM binding z-score bin applies?
Out: middle interval

In: For "CCGAGTAGGTTACGAGGGGGCATGCAGTGCGAAT" , which PBM binding z-score bin applies?
Out: low interval

In: For "CCTACTGGGCCGAGGTCATTGATCAGTCAAAGCA" , which PBM binding z-score bin applies?
Out: middle interval

In: For "CCGAGTAGTTTACGAGGGGGCATTCAGTGCGAAT" , which PBM binding z-score bin applies?
Out: low interval

In: For "ATCGAAACGTCGACGAGGTGAGTATACACCGTTT" , which PBM binding z-score bin applies?
Out: low interval

In: For "AATACAGGGTCGCTAGGCCAGAGTAGGTACGAAT" , which PBM binding z-score bin applies?
Out: low interval

In: For "TCATATAGGTAATCAGGTGAAAGTCCGTAAGTTA" , which PBM binding z-score bin applies?
Out: low interval

In: For "TATACAGGATCAAAGGCCAGAGTACGAATGTCGA" , which PBM binding z-score bin applies?
Out: low interval

In: For "CAAACTAGGTCACGAAAGGTCAAAGTGGAATGAC" , which PBM binding z-score bin applies?
Out: high interval

In: For "TCGATTAGGTTACGGGGGCATTCAGGGATGAAGA" , which PBM binding z-score bin applies?
Out: middle interval

In: For "TAGAGTAGGTTACGGGGGCATTCAGGGATGAAGA" , which PBM binding z-score bin applies?
Out: low interval

In: For "CCTACTGGGCCAAAGGTCATAGATTCCAATGCTC" , which PBM binding z-score bin applies?
Out: high interval

In: For "CAATCTAGGTCAAAGGTCAAAGTCGAGCCAACCA" , which PBM binding z-score bin applies?
Out: high interval

In: For "CGAACTGGGTCAAAGGACAGTGAAAGGCGACGTA" , which PBM binding z-score bin applies?
Out: middle interval
